For each record, write down the corresponding Incidence of pulmonary fibrosis, Ratio.
- Tested on: ICR strain mice
- procedure text: Pulmonary toxicity (pulmonary fibrosis) in mice, intraperitoneal injection
- Format: in vivo
- assay setup: 5 mg/kg i.p. once a day for 10 days; reference of the ratio not stated
Reply with the value as a number alone.

Lab request: please report Incidence of pulmonary fibrosis, Ratio under test system ICR strain mice for Cc1c(N)nc(C(CC(N)=O)NCC(N)C(N)=O)nc1C(=O)NC(C(=O)NC(C)C(O)C(C)C(=O)NC(C(=O)NCCc1nc(-c2nc(C(=O)NCCCN(C)CCCNCc3ccc(C#N)cc3)cs2)cs1)C(C)O)C(OC1OC(CO)C(O)C(O)C1OC1OC(CO)C(O)C(OC(N)=O)C1O)c1cnc[nH]1 (centres unmarked) [compound 18]
0.00

Param item: Cc1c(N)nc(C(CC(N)=O)NCC(N)C(N)=O)nc1C(=O)NC(C(=O)NC(C)C(O)C(C)C(=O)NC(C(=O)NCCc1nc(-c2nc(C(=O)NCCCN(C)CCCNCc3ccc(Cl)c(Cl)c3)cs2)cs1)C(C)O)C(OC1OC(CO)C(O)C(O)C1OC1OC(CO)C(O)C(OC(N)=O)C1O)c1cnc[nH]1 (centres unmarked) [compound 7]
0.18

Param item: Cc1c(N)nc(C(CC(N)=O)NCC(N)C(N)=O)nc1C(=O)NC(C(=O)NC(C)C(O)C(C)C(=O)NC(C(=O)NCCc1nc(-c2nc(C(=O)NCCCN(C)CCCNCc3ccc(OCc4ccccc4)c(OCc4ccccc4)c3)cs2)cs1)C(C)O)C(OC1OC(CO)C(O)C(O)C1OC1OC(CO)C(O)C(OC(N)=O)C1O)c1cnc[nH]1 (centres unmarked) [compound 15]
0.18

Param item: Cc1c(N)nc(C(CC(N)=O)NCC(N)C(N)=O)nc1C(=O)NC(C(=O)NC(C)C(O)C(C)C(=O)NC(C(=O)NCCc1nc(-c2nc(C(=O)NCCCN(C)CCCN)cs2)cs1)C(C)O)C(OC1OC(CO)C(O)C(O)C1OC1OC(CO)C(O)C(OC(N)=O)C1O)c1cnc[nH]1 (centres unmarked) [APMP, reference compound]
1.6

Param item: Cc1c(N)nc(C(CC(N)=O)NCC(N)C(N)=O)nc1C(=O)NC(C(=O)NC(C)C(O)C(C)C(=O)NC(C(=O)NCCc1nc(-c2nc(C(=O)NCCCN(C)CCCNCC(c3ccccc3)c3ccccc3)cs2)cs1)C(C)O)C(OC1OC(CO)C(O)C(O)C1OC1OC(CO)C(O)C(OC(N)=O)C1O)c1cnc[nH]1 (centres unmarked) [compound 17]
0.32

* * *

- System: ICR strain mice
- procedure text: Pulmonary toxicity (pulmonary fibrosis) in mice, intraperitoneal injection
- Assay type: in vivo
- assay setup: 5 mg/kg i.p. once a day for 10 days; autopsy after 5 weeks
quantity name: Incidence of pulmonary fibrosis, % (%)
Entry rule: numbers only, all in %.

Lab request: please report Incidence of pulmonary fibrosis, % under test system ICR strain mice for Cc1c(N)nc(C(CC(N)=O)NCC(N)C(N)=O)nc1C(=O)NC(C(=O)NC(C)C(O)C(C)C(=O)NC(C(=O)NCCc1nc(-c2nc(C(=O)NCCCN(C)CCCNCC(c3ccccc3)c3ccccc3)cs2)cs1)C(C)O)C(OC1OC(CO)C(O)C(O)C1OC1OC(CO)C(O)C(OC(N)=O)C1O)c1cnc[nH]1 (stereo not shown)
20

* * *

For each record, write down the corresponding Incidence: number of mice with pulmonary fibrosis/number of mice.
- Tested on: ICR mice
- procedure text: Pulmonary toxicity (pulmonary fibrosis) in mice, intratracheal instillation
- Assay type: in vivo
- assay setup: 16 μg/50 μl/mouse intratracheally; sacrificed 4 weeks after instillation

Incidence: number of mice with pulmonary fibrosis/number of mice for Cc1c(N)nc(C(CC(N)=O)NCC(N)C(N)=O)nc1C(=O)NC(C(=O)NC(C)C(O)C(C)C(=O)NC(C(=O)NCCc1nc(-c2nc(C(=O)NCCCNCCCNC(C)c3ccccc3)cs2)cs1)C(C)O)C(OC1OC(CO)C(O)C(O)C1OC1OC(CO)C(O)C(OC(N)=O)C1O)c1cnc[nH]1 (centres unmarked) [PEPP, reference compound] ?
8/9

Param item: Cc1c(N)nc(C(CC(N)=O)NCC(N)C(N)=O)nc1C(=O)NC(C(=O)NC(C)C(O)C(C)C(=O)NC(C(=O)NCCc1nc(-c2nc(C(=O)NCCC[N+](C)(C)CCCN(Cc3ccccc3)Cc3ccccc3)cs2)cs1)C(C)O)C(OC1OC(CO)C(O)C(O)C1OC1OC(CO)C(O)C(OC(N)=O)C1O)c1cnc[nH]1 (centres unmarked)
2/8

Param item: Cc1c(N)nc(C(CC(N)=O)NCC(N)C(N)=O)nc1C(=O)NC(C(=O)NC(C)C(O)C(C)C(=O)NC(C(=O)NCCc1nc(-c2nc(C(=O)NCCCN(C)CCCN(Cc3ccccc3)Cc3ccccc3)cs2)cs1)C(C)O)C(OC1OC(CO)C(O)C(O)C1OC1OC(CO)C(O)C(OC(N)=O)C1O)c1cnc[nH]1 (centres unmarked)
2/9

Param item: Cc1c(N)nc(C(CC(N)=O)NCC(N)C(N)=O)nc1C(=O)NC(C(=O)NC(C)C(O)C(C)C(=O)NC(C(=O)NCCc1nc(-c2nc(C(=O)NCCCN(C)CCCNC(C)c3ccc(Cl)cc3)cs2)cs1)C(C)O)C(OC1OC(CO)C(O)C(O)C1OC1OC(CO)C(O)C(OC(N)=O)C1O)c1cnc[nH]1 (centres unmarked)
4/7

Param item: Cc1c(N)nc(C(CC(N)=O)NCC(N)C(N)=O)nc1C(=O)NC(C(=O)NC(C)C(O)C(C)C(=O)NC(C(=O)NCCc1nc(-c2nc(C(=O)NCCCN(C)CCCNCc3ccc([N+](=O)[O-])cc3)cs2)cs1)C(C)O)C(OC1OC(CO)C(O)C(O)C1OC1OC(CO)C(O)C(OC(N)=O)C1O)c1cnc[nH]1 (centres unmarked) [MNBZ, reference compound]
8/9

* * *

For each record, write down the corresponding Incidence: number of mice suffering from pulmonary fibrosis.
- System: ICR strain mice
- procedure text: Pulmonary toxicity (pulmonary fibrosis) in mice, intraperitoneal injection
- Assay type: in vivo
- assay setup: 5 mg/kg i.p. once a day for 10 days; autopsy after 5 weeks; affected/total mice

Incidence: number of mice suffering from pulmonary fibrosis for COc1ccc(COc2ccc(CN(CCCN(C)CCCNC(=O)c3csc(-c4csc(CCNC(=O)C(NC(=O)C(C)C(O)C(C)NC(=O)C(NC(=O)c5nc(C(CC(N)=O)NCC(N)C(N)=O)nc(N)c5C)C(OC5OC(CO)C(O)C(O)C5OC5OC(CO)C(O)C(OC(N)=O)C5O)c5cnc[nH]5)C(C)O)n4)n3)Cc3ccc(OCc4ccc(OC)cc4)c(OCc4ccc(OC)cc4)c3)cc2OCc2ccc(OC)cc2)cc1 (stereo not drawn) [compound 50] ?
0/9

Param item: Cc1c(N)nc(C(CC(N)=O)NCC(N)C(N)=O)nc1C(=O)NC(C(=O)NC(C)C(O)C(C)C(=O)NC(C(=O)NCCc1nc(-c2nc(C(=O)NCCCN3CCN(CCCNCc4ccc(Cl)cc4)CC3)cs2)cs1)C(C)O)C(OC1OC(CO)C(O)C(O)C1OC1OC(CO)C(O)C(OC(N)=O)C1O)c1cnc[nH]1 (stereo not drawn) [compound 44]
0/9

Param item: Cc1c(N)nc(C(CC(N)=O)NCC(N)C(N)=O)nc1C(=O)NC(C(=O)NC(C)C(O)C(C)C(=O)NC(C(=O)NCCc1nc(-c2nc(C(=O)NCCC[N+](C)(C)CCC[N+](C)(C)CCCNCC3CCCCCCC3)cs2)cs1)C(C)O)C(OC1OC(CO)C(O)C(O)C1OC1OC(CO)C(O)C(OC(N)=O)C1O)c1cnc[nH]1 (stereo not drawn) [Compound No. 42]
0/9

* * *

For each record, write down the corresponding Incidence: number of mice suffering from pulmonary fibrosis.
- System: ICR strain mice
- procedure text: Pulmonary toxicity (pulmonary fibrosis) in mice, intraperitoneal injection
- Type: in vivo
- assay setup: 5 mg/kg i.p. once a day for 10 days; autopsy after 5 weeks; affected/total mice

Incidence: number of mice suffering from pulmonary fibrosis for CCCC[N+](CCCC)(CCCNC(=O)c1csc(-c2csc(CCNC(=O)C(NC(=O)C(C)C(O)C(C)NC(=O)C(NC(=O)c3nc(C(CC(N)=O)NCC(N)C(N)=O)nc(N)c3C)C(OC3OC(CO)C(O)C(O)C3OC3OC(CO)C(O)C(OC(N)=O)C3O)c3cnc[nH]3)C(C)O)n2)n1)CCCN(Cc1ccccc1)Cc1ccccc1 (stereo not shown) [compound 38] ?
0/9

Param item: Cc1c(N)nc(C(CC(N)=O)NCC(N)C(N)=O)nc1C(=O)NC(C(=O)NC(C)C(O)C(C)C(=O)NC(C(=O)NCCc1nc(-c2nc(C(=O)NCCCN(C)CCCNCC3CCCCCCC3)cs2)cs1)C(C)O)C(OC1OC(CO)C(O)C(O)C1OC1OC(CO)C(O)C(OC(N)=O)C1O)c1cnc[nH]1.Cl.Cl.Cl (stereo not shown) [Compound No. 22]
0/9

Param item: Cc1c(N)nc(C(CC(N)=O)NCC(N)C(N)=O)nc1C(=O)NC(C(=O)NC(C)C(O)C(C)C(=O)NC(C(=O)NCCc1nc(-c2nc(C(=O)NCCCN(C)CCCNC(C)c3ccc(Cl)cc3)cs2)cs1)C(C)O)C(OC1OC(CO)C(O)C(O)C1OC1OC(CO)C(O)C(OC(N)=O)C1O)c1cnc[nH]1 (stereo not shown) [compound 14]
2/9

Param item: Cc1c(N)nc(C(CC(N)=O)NCC(N)C(N)=O)nc1C(=O)NC(C(=O)NC(C)C(O)C(C)C(=O)NC(C(=O)NCCc1nc(-c2nc(C(=O)NCCCN(C)CCCNCC3CCCCCCCCCCCC3)cs2)cs1)C(C)O)C(OC1OC(CO)C(O)C(O)C1OC1OC(CO)C(O)C(OC(N)=O)C1O)c1cnc[nH]1 (stereo not shown) [compound 47]
0/9

Param item: Cc1c(N)nc(C(CC(N)=O)NCC(N)C(N)=O)nc1C(=O)NC(C(=O)NC(C)C(O)C(C)C(=O)NC(C(=O)NCCc1nc(-c2nc(C(=O)NCCCN(C)CCCNCC(c3ccccc3)c3ccccc3)cs2)cs1)C(C)O)C(OC1OC(CO)C(O)C(O)C1OC1OC(CO)C(O)C(OC(N)=O)C1O)c1cnc[nH]1 (stereo not shown) [compound 17]
1/5

Param item: Cc1c(N)nc(C(CC(N)=O)NCC(N)C(N)=O)nc1C(=O)NC(C(=O)NC(C)C(O)C(C)C(=O)NC(C(=O)NCCc1nc(-c2nc(C(=O)NCCCN(C)CCCN(Cc3ccccc3)Cc3ccccc3)cs2)cs1)C(C)O)C(OC1OC(CO)C(O)C(O)C1OC1OC(CO)C(O)C(OC(N)=O)C1O)c1cnc[nH]1 (stereo not shown) [compound 27]
1/5

Param item: Cc1c(N)nc(C(CC(N)=O)NCC(N)C(N)=O)nc1C(=O)NC(C(=O)NC(C)C(O)C(C)C(=O)NC(C(=O)NCCc1nc(-c2nc(C(=O)NCCCN(C)CCCNCC3CCCCCCCCCC3)cs2)cs1)C(C)O)C(OC1OC(CO)C(O)C(O)C1OC1OC(CO)C(O)C(OC(N)=O)C1O)c1cnc[nH]1 (stereo not shown) [Compound No. 32]
0/9
